- subject_of_test: T1, recombinantly expressed purified soluble WNV E protein (truncated form, strain 382-99) (West Nile virus strain 382-99, UniProt Q9Q6P4 291-696)
- T1 construct: also called recombinant WNV-E protein; truncated E protein
- T1 sequence: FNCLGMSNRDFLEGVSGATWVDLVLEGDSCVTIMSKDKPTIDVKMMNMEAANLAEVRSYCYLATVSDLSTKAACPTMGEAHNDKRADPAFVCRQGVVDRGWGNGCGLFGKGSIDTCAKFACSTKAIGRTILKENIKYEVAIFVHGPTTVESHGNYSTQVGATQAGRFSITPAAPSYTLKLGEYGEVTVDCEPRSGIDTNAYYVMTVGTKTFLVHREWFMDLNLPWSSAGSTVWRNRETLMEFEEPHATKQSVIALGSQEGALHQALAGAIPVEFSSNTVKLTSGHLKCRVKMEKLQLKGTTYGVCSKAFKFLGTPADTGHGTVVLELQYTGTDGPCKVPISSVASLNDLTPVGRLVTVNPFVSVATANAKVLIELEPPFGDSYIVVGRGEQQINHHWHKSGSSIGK
- experiment_summary: phage ELISA on coated recombinant soluble WNV E protein
readout_name: OD 492 nm (OD)
Write it as a number; the unit OD goes unstated.

SC04-374 (scFv) scFv: QVTLKESGPTLVKPTQTLTLTCTFSGFSLSTSGVGVGWIRQPPGKALEWLAVIYWNDDKLYRPSLKSRLTITKDTSKNQVVLTMTKMDPVDTATYYCAHRHRYYDISGYYRLFSDAFDIWGQGTMVTVSSGTGGSGGTGSGTGGSTQSVVTQPPSVSGAPGQRVTISCTGSSSNIGAGYDVHWYQQLPGTAPKLLIYGNSNRPSGVPDRFSGSKSGTSASLAITGLQAEDEADYYCQSYDSSLSGSVFGGGTKLTVLG: 1.36

[ask] Supply OD 492 nm value. Item: SC04-325 (scFv) scFv: QMQLVQSGAEVKKPGSSVKVSCKASGDTFSSYAISWVRQAPGQGLEWMGGIFGTASYAQKFQGRVTITADESTSTAYMELSSLRSEDTAVYYCARGGMATTPGLDYWGQGTLVTVSSGTGGSGGTGSGTGGSTDIQLTQSPDSLAVSLGERATINCKSSQSVLYSSNNKNYLAWYQQKPGQPPKLLIYWASTRESGVPDRFSGSGSGTDFTLTISSLQAEDVAVYYCQQYYSTPLTFGQGTKVEIKR
[reply] 1.4
